- test description: The drug is tested on WLS-069 corresponding to human gut metagenome with ENA study accession number: PRJEB37062 and ENA sample accession number: ERS12561748 for biotransformation under anaerobic condition. The drug concentrations were measured over 9 timepoints collected between 0 and 24 hours of incubation by liquid-chromatography-coupled mass spectrometry (LC–MS); note: call rule not given here
- assay setup: 2 µM

compound	Bacterial Biotransformation
COc1ccc2cc([C@H](C)C(=O)O)ccc2c1	Compound metabolized
CC(NC(C)(C)C)C(=O)c1cccc(Cl)c1 (stereo not given)	Compound NOT metabolized
CC12CC3CC(C)(C1)CC(N)(C3)C2 [MEMANTINE]	Compound NOT metabolized
CCOc1cc(CC(=O)N[C@@H](CC(C)C)c2ccccc2N2CCCCC2)ccc1C(=O)O [REPAGLINIDE]	Compound metabolized
COc1cc2nc(N3CCN(C(=O)C4COc5ccccc5O4)CC3)nc(N)c2cc1OC.CS(=O)(=O)O (stereo not given) [DOXAZOSIN MESYLATE]	Compound metabolized

Data origin: ChEMBL document CHEMBL5724914
